# assayed.target: T1, human IL-18 binding protein (human, UniProt O95998 31-194)
# T1 sequence (looked up): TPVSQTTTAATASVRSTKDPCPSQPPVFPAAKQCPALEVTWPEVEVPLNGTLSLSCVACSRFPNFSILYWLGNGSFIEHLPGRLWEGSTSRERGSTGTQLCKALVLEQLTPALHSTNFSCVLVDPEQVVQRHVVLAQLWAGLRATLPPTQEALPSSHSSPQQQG
# test: cell-based or functional assay
With a cut-off of 1, any Ratio (-BP/+BP), DF-10000 strictly below it is called 1 (yes); any Ratio (-BP/+BP), DF-10000 meeting it or above is called 0 (no).

// known answers, use as guide
{"binder": "yeast display IL-18 variant K53D, S55N (ligand) YFGKLESKLSVIRNLNDQVLFIDQGNRPLFEDMTDSDMRDNAPRTIFIISMYDDNQPRGMAVTISVKSEKISTLSSENKIISFKEMNPPDNIKDTKSDIIFFQRSVPGHDNKMQFESSSYEGYFLASEKERDLFKLILKKEDELGDRSIMFTVQNED", "label.value": "1 (yes)"}
{"binder": "yeast display IL-18 variant K53N, S55M, R104S, P107A (ligand) YFGKLESKLSVIRNLNDQVLFIDQGNRPLFEDMTDSDMRDNAPRTIFIISMYNDMQPRGMAVTISVKSEKISTLSSENKIISFKEMNPPDNIKDTKSDIIFFQSSVAGHDNKMQFESSSYEGYFLASEKERDLFKLILKKEDELGDRSIMFTVQNED", "label.value": "0 (no)"}
{"binder": "yeast display IL-18 variant K53T, S55M, R58K (ligand) YFGKLESKLSVIRNLNDQVLFIDQGNRPLFEDMTDSDMRDNAPRTIFIISMYTDMQPKGMAVTISVKSEKISTLSSENKIISFKEMNPPDNIKDTKSDIIFFQRSVPGHDNKMQFESSSYEGYFLASEKERDLFKLILKKEDELGDRSIMFTVQNED", "label.value": "0 (no)"}
{"binder": "yeast display IL-18 variant K53T, S55A (ligand) YFGKLESKLSVIRNLNDQVLFIDQGNRPLFEDMTDSDMRDNAPRTIFIISMYTDAQPRGMAVTISVKSEKISTLSSENKIISFKEMNPPDNIKDTKSDIIFFQRSVPGHDNKMQFESSSYEGYFLASEKERDLFKLILKKEDELGDRSIMFTVQNED", "label.value": "1 (yes)"}
{"binder": "yeast display IL-18 variant T34I, S36V, D40I, N41M, K53G, S55Y (ligand) YFGKLESKLSVIRNLNDQVLFIDQGNRPLFEDMIDVDMRIMAPRTIFIISMYGDYQPRGMAVTISVKSEKISTLSSENKIISFKEMNPPDNIKDTKSDIIFFQRSVPGHDNKMQFESSSYEGYFLASEKERDLFKLILKKEDELGDRSIMFTVQNED", "label.value": "0 (no)"}

I wonder whether yeast display IL-18 variant K53Y, S55Y (ligand) YFGKLESKLSVIRNLNDQVLFIDQGNRPLFEDMTDSDMRDNAPRTIFIISMYYDYQPRGMAVTISVKSEKISTLSSENKIISFKEMNPPDNIKDTKSDIIFFQRSVPGHDNKMQFESSSYEGYFLASEKERDLFKLILKKEDELGDRSIMFTVQNED has Ratio (-BP/+BP), DF-10000 below 1. Can you tell?
0 (no)

Hello, I'm reviewing records and need to know if Ratio (-BP/+BP), DF-10000 of yeast display IL-18 variant K53T, S55F (ligand) YFGKLESKLSVIRNLNDQVLFIDQGNRPLFEDMTDSDMRDNAPRTIFIISMYTDFQPRGMAVTISVKSEKISTLSSENKIISFKEMNPPDNIKDTKSDIIFFQRSVPGHDNKMQFESSSYEGYFLASEKERDLFKLILKKEDELGDRSIMFTVQNED is below 1. Could you check?
0 (no)
